# MEASUREMENT_NOTES: No toxic effect level (NTEL) / tolerability, repeated oral dosing in dogs
# SETTINGS: dog, in vivo, over 4 weeks, Beagle dogs, p.o., read-out: Well tolerated dose

[
  {
    "COMPOUND": "Cc1[nH]c2cccc3c2c1C[C@@H]1[C@@H]3C[C@H](NC(=O)C(C)(C)C)CN1C [Compound E]",
    "NOAEL at 672 h": "≥ 3 mg/kg/day"
  }
]

* * *

# MEASUREMENT_NOTES: Acute toxicity (LD50) in the mouse
# SETTINGS: in vivo, iv, over 7 days, read-out: acute LD₅₀ (mouse) i.v.
Here, each record is paired with measured LD50 at 168 h data.
ASSAY_METRIC: LD50 at 168 h (mg/kg)

[
  {
    "MOLECULE": "CCCN1C[C@@H](NS(=O)(=O)N(CC)CC)C[C@@H]2c3cccc4[nH]cc(c34)C[C@H]21",
    "ASSAY_METRIC": "LD50 at 168 h",
    "VALUE_UNITS": "mg/kg",
    "DATA_VALUE": 45
  },
  {
    "MOLECULE": "CCCN1CC(NS(=O)(=O)N(CC)CC)CC2Cc3c(O)cccc3CC21 (stereo not drawn)",
    "ASSAY_METRIC": "LD50 at 168 h",
    "VALUE_UNITS": "mg/kg",
    "DATA_VALUE": 17
  },
  {
    "MOLECULE": "CCN(CC)S(=O)(=O)N[C@H]1C[C@@H]2c3cccc4c3c(cn4CC)C[C@H]2N(C)C1",
    "ASSAY_METRIC": "LD50 at 168 h",
    "VALUE_UNITS": "mg/kg",
    "DATA_VALUE": 44
  }
]
